Tested on: Fibroblast
Test: Incucyte cell viability with human fibroblast; also: unitless GR value; below 1 slowed growth and below 0 cell loss
Type: toxicity, cell-based
Conditions: 6 h, 10 µM, compound concentration 10 uM, replicate number 1, timepoint 6 hours
Binary label based on Growth Rate with cut-off 0.2: below gives Y, not below gives N.

// known answers, use as guide
CCCN(CCC)[C@@H]1CCc2ccc3[nH]c(C#N)cc3c2C1.Cl
Y
Cc1ccccc1C(=O)Nc1ccc(C(=O)N2CCCC(N(C)C)c3ccccc32)cc1.Cl (centres undefined)
Y
Cc1cccc(NC(=O)CN2CCC(c3ccccn3)CC2)c1.Cl.Cl
Y
O=C(N[C@@H]1CC[C@@H](c2cccc(F)c2F)CN(CC(F)(F)F)C1=O)N1CCC(n2c(=O)[nH]c3ncccc32)CC1
Y
O=C1NC(=Nc2c(Cl)cccc2Cl)S/C1=C\c1ccc2nccnc2c1
N
Cc1ccccc1-c1cc(N2CCN(C)CC2)ncc1N(C)C(=O)C(C)(C)c1cc(C(F)(F)F)cc(C(F)(F)F)c1
N
Cc1cc(-c2ccc3c(c2)CC[C@H]3N2CC3(CCN(C(=O)Cc4cn5cc(C)sc5n4)CC3)C2)ncn1
Y
Cc1cnc(CNCC2(F)CCN(C(=O)c3ccc(F)c(Cl)c3)CC2)nc1
N

Prompt: hey, is Growth Rate for `CC(C)N(CCCCOCC(=O)NS(C)(=O)=O)c1cnc(-c2ccccc2)c(-c2ccccc2)n1` lower than 0.2 or not?
Completion: N

====

Tested on: HEK-293T
Assay: Incucyte cell viability with HEK293T; also: unitless GR value; below 1 slowed growth and below 0 cell loss
Type: toxicity, cell-based
Settings: human, 12 h, 10 µM, compound concentration 10 uM, replicate number 2, timepoint 12 hours
Please respond with reported Growth Rate for every item in the list.
Give bare numbers.

Use these answered entries as a reference point.
COc1ccc(NC(=O)c2ccc(-c3ccc(-c4noc(C)n4)cc3C)cc2)cc1OCCN(C)C.Cl
-0.38
O=C1COc2nccc(-c3ccccc3F)c2CN1Cc1cc(C(F)(F)F)cc(C(F)(F)F)c1
0.89
Cc1ccccc1N1CCN(S(=O)(=O)C[C@]23CC[C@H](C[C@@H]2NC(=O)[C@@H](N)CCS(C)(=O)=O)C3(C)C)CC1.Cl
0.75
CCN(Cc1ccncc1)C(=O)C(CO)c1ccccc1 (configuration not stated) [TROPICAMIDE]
0.95

For every item below, please supply its Growth Rate.
1. CCNC1(C(N)=O)CCN(c2ncnc3c2nc(-c2ccccc2Cl)n3-c2ccc(Cl)cc2)CC1 [OTENABANT]
2. Cl.Clc1ccc2nsnc2c1NC1=NCCN1 [TIZANIDINE HYDROCHLORIDE]
3. CCCCC[C@H](O)/C=C/[C@H]1CCC(=O)[C@@H]1CCCCCCC(=O)O
4. NCCc1cn(S(=O)(=O)c2c(Cl)nc3sccn23)c2ccccc12.O=C(O)C(=O)O
5. CC(C)(O)C(=O)N1CCN(c2ccc(C(F)(F)F)c(C3=C(c4c[nH]c5ccccc45)C(=O)NC3=O)c2)CC1

Completion:
0.81
0.61
0.7
0.08
0.37

====

Tested on: HEK-293T
Assay: Incucyte cell viability with HEK293T; also: unitless GR value; below 1 slowed growth and below 0 cell loss
Type: toxicity, cell-based
Details: human, 18 h, 10 µM, compound concentration 10 uM, replicate number 2, timepoint 18 hours
endpoint_name: Growth Rate
Give bare numbers.

CCOC(=O)Nc1cc(-c2ccc(C)c(NS(C)(=O)=O)c2)nn2c(C)nnc12
0.98
CCOC(=O)N[C@@H]1CC[C@@H]2[C@@H](C1)C[C@H]1C(=O)O[C@H](C)[C@H]1[C@H]2/C=C/c1ccc(-c2cccc(F)c2)cn1
0.87
Br.Cc1cccc(C2CN(C)CCc3c2cc(O)c(O)c3Cl)c1 (stereo not given)
0.81
CN(C)CCCOc1ccc(-c2cc(NCCCn3cccn3)nc(S(C)(=O)=O)n2)cc1
0.97

Prompt: Find the measured Growth Rate of `Nc1nc(Nc2ccccc2)nc2c1ncn2[C@@H]1O[C@H](CO)[C@@H](O)[C@H]1O` and report it.
Completion: 0.95

Values were extracted from ChEMBL document CHEMBL5058564.
